Assay: blockers of RIG-like receptor reporter activation – cell-based, Sendai virus stimulus, luciferase, 10K MLSCN set, TLR/RLR signaling modifier project, primary screen (AID 602276);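 note: firefly luciferase from ISG56 promoter only with Renilla not read in this screen; 0% = Sendai virus plus DMSO and 100% = medium plus DMSO without virus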
Settings: HEK293 RL24 IRF3 luciferase reporter, at 10 µM, active compounds read high
METRIC: inhibition (%)
Return type: number; implicit unit %.

Q) # inhibition lookup, item O=S(=O)(NC1CCCCC1NS(=O)(=O)c1ccc(F)cc1)c1ccc(F)cc1 (stereo not given)
A) 21.4

Q) # inhibition lookup, item "Cc1ccccc1-n1nnc2c(=O)oc3ccccc3c21"
A) 12.8

Q) # inhibition lookup, item "CCOC(=O)N1CCN(C(=O)CSc2nnc(COc3ccccc3)o2)CC1"
A) -13.9

Q) # inhibition lookup, item "N#Cc1c(NC(=O)c2ccc(Br)o2)n(-c2ccccc2)c2nc3ccccc3nc12"
A) 19.9

Q) # inhibition lookup, item COc1ccc(Cn2nnnc2C(c2cccs2)N2CCOCC2)cc1 (stereo not given)
A) -1.07

Q) # inhibition lookup, item "O=C(CSc1nnc2ccccn12)c1ccccc1"
A) -34.1

Q) # inhibition lookup, item "CC(C)C[C@H](NC(=O)Nc1cccc(C(F)(F)F)c1)C(=O)O"
A) -1.3

Q) # inhibition lookup, item "CCN1CCN(c2ncnc3c2cnn3-c2ccc(C)cc2C)CC1"
A) 10.8

Q) # inhibition lookup, item "O=S(=O)(c1ccc(-c2csc(-c3cccnc3)n2)cc1)N1CCCCC1"
A) -0.353

Q) # inhibition lookup, item "CCN1CCN(Cc2nc3c(c(=O)[nH]c(=O)n3C)n2Cc2ccccc2Cl)CC1"
A) 9.74
